Molecular target: human adenosine A2B receptor (Homo sapiens, UniProt P29275)
Sequence (P29275 1-332): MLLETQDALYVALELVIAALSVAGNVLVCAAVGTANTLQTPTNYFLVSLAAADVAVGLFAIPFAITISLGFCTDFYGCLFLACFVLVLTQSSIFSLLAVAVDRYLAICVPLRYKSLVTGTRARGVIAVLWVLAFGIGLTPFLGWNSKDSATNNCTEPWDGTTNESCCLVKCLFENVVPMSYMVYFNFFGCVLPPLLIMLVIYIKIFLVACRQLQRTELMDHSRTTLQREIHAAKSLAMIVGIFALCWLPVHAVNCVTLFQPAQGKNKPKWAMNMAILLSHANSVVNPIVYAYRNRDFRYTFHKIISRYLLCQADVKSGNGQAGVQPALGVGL
Assay: Inhibitory activity on NECA-induced cyclic AMP production in CHO.K1 cells expressing human adenosine A2B receptor
Conditions: 100 nM NECA, cAMP (HitHunter kit), 30-45 min incubation
Criterion: IC50 strictly less than 9 nM. Met: yes. Not met: no.

Sample answers from the record:
1) COC(=O)c1ccccc1S(=O)(=O)C1CCN(C(=O)Nc2nc3c(OC)ncnc3s2)CC1 [Example 76] : no
2) COC(=O)c1cccc(CN2CCN(C(=O)Nc3nc4c(OC)ncnc4s3)CC2)c1 [Example 10] : no
3) COc1ncnc2sc(NC(=O)N3CCN(Cc4cccc(C(F)(F)F)c4)CC3)nc12 [Example 1] : yes
4) COc1ncnc2sc(NC(=O)N3CC[C@H](NC(=O)c4ccc(F)c(C(F)(F)F)c4)C3)nc12 [Example 89] : yes
5) COc1ncnc2sc(NC(=O)N3CCC(N4CCCC4c4ccccc4)CC3)nc12 (centres unmarked) [Example 62] : no

Task: I'd appreciate it if you could check whether CCOC(=O)C1(Cc2ccc(OC(F)(F)F)cc2)CCCN(C(=O)Nc2nc3c(OC)ncnc3s2)C1 (centres unmarked) [Example 54] has IC50 smaller than 9 nM.
Output: no

---

Molecular target: UniProt P29275
Sequence (P29275 1-332): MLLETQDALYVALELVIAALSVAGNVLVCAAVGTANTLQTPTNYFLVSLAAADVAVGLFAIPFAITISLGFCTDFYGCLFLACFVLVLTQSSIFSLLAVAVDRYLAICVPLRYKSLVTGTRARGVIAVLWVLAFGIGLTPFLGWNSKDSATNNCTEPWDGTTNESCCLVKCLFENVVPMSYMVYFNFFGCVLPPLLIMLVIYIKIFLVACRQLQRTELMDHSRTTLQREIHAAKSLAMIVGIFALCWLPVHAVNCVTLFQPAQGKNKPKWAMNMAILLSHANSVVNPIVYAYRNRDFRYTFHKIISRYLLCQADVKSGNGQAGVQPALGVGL
Experiment: Inhibitory activity on NECA-induced cyclic AMP production in CHO.K1 cells expressing human adenosine A2B receptor
Conditions: 100 nM NECA, cAMP (HitHunter kit), 30-45 min incubation
measurement_kind: IC50 (µM)
Kindly provide the numeric value in µM only, without the unit symbol.

Recorded IC50, per entry:
1) COc1ncnc2sc(NC(=O)N3CCN(Cc4cccc(OCCO)c4)CC3)nc12 [Example 16] : 0.197
2) COc1ncnc2sc(NC(=O)N3CCc4cc(C(F)(F)F)ccc4C3)nc12 [Example 95] : 0.115
3) COc1ncnc2sc(NC(=O)N3CCC(n4c(=O)[nH]c5ccccc54)CC3)nc12 [Example 57] : 0.052
4) COc1ncnc2sc(NC(=O)N3CCN(Cc4cccc(C(=O)O)c4O)CC3)nc12 [Example 27] : 1.56
5) COc1ncnc2sc(NC(=O)N3CCC(NCc4ccc(F)c(C(F)(F)F)c4)C3)nc12 (stereo in doubt) [Example 87] : 0.002

// switching to the query compound
Task: Could you tell me which IC50 is on file for COc1ncnc2sc(NC(=O)N3CC=C(c4cccc(C(F)(F)F)c4)CC3)nc12 [Example 67] ?
Output: 0.051
